In this section we review reported inhibition values for a set of compounds.
Species: Rattus norvegicus
PROTOCOL_NOTES: Inhibition of protein tyrosine phosphatase (PTP) activity in rat liver endosome insulin receptor (IR) dephosphorylation assay at 0.1 mM
Give a bare numeral; the unit % is implied.

Here's what some known entries look like.
INSERT INTO measurements (compound, result_type, reported) VALUES
  ('O=[N+]([O-])c1cccc(I(=O)=O)c1', 'inhibition', 27),
  ('O=I(=O)c1c[nH]cn1', 'inhibition', 22),
  ('CC(=O)OI1(OC(C)=O)(OC(C)=O)OC(=O)c2ccccc21', 'inhibition', 50),
  ('O=C1OI(=O)(O)c2ccccc21 (stereo unspecified)', 'inhibition', 36),
  ('O=C(O)c1cccc(I(=O)=O)c1', 'inhibition', 32),
  ('OO', 'inhibition', 0),
  ('O=I(=O)c1ccccc1', 'inhibition', 0),
  ('CC(C)(C)OOI1OC(=O)c2ccccc21', 'inhibition', 48);

Quick check: inhibition of Cc1ccc(I(=O)=O)cc1 ? 6

Further, for O=P1(O)Oc2ccccc2I(=O)(O)O1 (stereo unspecified) ? 17

Further, for O=[N+]([O-])c1ccc(I(=O)=O)cc1 ? 30

Values compiled from ChEMBL document CHEMBL1131920.
